Molecular target: Inward rectifier potassium channel 2 (Mus musculus)
Assay: inhibitors of mouse Kir2.1 inward-rectifier potassium channel (AID 1672);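 note: channel flux triggered by added potassium and thallium sulfate stimulus; B-score of peak minus minimum fluorescence over baseline after thallium stimulus; more negative B-score means stronger Kir2.1 block with less thallium influx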
Details: HEK293-Kir2.1, FluxOR thallium flux fluorescence; at 10 µM; hits give low values
Among all 310,000 compounds or so, about 2,600 (0.84%) were called active. The entries come from a sample that favours actives as a whole.
Binarize B-score at -0.9; below is True, at or above is False.

Problem: For the molecule `CCOC(=O)C1(CCc2ccccc2)CCN(Cc2ccco2)CC1` , is B-score under -0.9?
True

Problem: For the molecule Cc1ccc(C2CN(C)CC2C(=O)c2ccc(F)cc2)cc1 (stereo unspecified) , is B-score under -0.9?
True

Problem: For the molecule `O=c1c2ccccc2nc(/C=C/c2ccco2)n1-c1ccccc1O` , is B-score under -0.9?
False

Problem: For the molecule `O=C1N=c2ccccc2=C/C1=C\c1c(O)[nH]c(=S)[nH]c1=O` , is B-score under -0.9?
False

Problem: For the molecule CCN1C(=O)C(=Cc2c(C)n(CC(=O)NCC3CCCO3)c3ccccc23)C(=O)N(CC)C1=S (stereo unspecified) , is B-score under -0.9?
False

Problem: For the molecule CCC(C)n1c(O)c(/C=N/Nc2nc3c(c(=O)n(C)c(=O)n3C)n2C)c(=O)[nH]c1=S (stereo unspecified) , is B-score under -0.9?
False

Problem: For the molecule `c1ccc(CCN2CCC3(CC2)OCCO3)cc1` , is B-score under -0.9?
False

Problem: For the molecule CNCC(O)c1cc(F)c(OCc2ccccc2)c(OCc2ccccc2)c1F (stereo unspecified) , is B-score under -0.9?
True

Problem: For the molecule `COC(=O)C1=C(c2cc3ccccc3s2)C[C@@H]2CC[C@H]1N2C(=O)NC(C)C` , is B-score under -0.9?
True

Problem: For the molecule `CCCCCCCCCCCCn1ccc(=N)cc1` , is B-score under -0.9?
True

Values compiled from PubChem BioAssay AID1672.
